Data origin, for the record: PubChem BioAssay AID743388

- test_system: Phospholipase D1 (Homo sapiens) (UniProt Q13393)
- Sequence (Q13393 whole entry, looked up): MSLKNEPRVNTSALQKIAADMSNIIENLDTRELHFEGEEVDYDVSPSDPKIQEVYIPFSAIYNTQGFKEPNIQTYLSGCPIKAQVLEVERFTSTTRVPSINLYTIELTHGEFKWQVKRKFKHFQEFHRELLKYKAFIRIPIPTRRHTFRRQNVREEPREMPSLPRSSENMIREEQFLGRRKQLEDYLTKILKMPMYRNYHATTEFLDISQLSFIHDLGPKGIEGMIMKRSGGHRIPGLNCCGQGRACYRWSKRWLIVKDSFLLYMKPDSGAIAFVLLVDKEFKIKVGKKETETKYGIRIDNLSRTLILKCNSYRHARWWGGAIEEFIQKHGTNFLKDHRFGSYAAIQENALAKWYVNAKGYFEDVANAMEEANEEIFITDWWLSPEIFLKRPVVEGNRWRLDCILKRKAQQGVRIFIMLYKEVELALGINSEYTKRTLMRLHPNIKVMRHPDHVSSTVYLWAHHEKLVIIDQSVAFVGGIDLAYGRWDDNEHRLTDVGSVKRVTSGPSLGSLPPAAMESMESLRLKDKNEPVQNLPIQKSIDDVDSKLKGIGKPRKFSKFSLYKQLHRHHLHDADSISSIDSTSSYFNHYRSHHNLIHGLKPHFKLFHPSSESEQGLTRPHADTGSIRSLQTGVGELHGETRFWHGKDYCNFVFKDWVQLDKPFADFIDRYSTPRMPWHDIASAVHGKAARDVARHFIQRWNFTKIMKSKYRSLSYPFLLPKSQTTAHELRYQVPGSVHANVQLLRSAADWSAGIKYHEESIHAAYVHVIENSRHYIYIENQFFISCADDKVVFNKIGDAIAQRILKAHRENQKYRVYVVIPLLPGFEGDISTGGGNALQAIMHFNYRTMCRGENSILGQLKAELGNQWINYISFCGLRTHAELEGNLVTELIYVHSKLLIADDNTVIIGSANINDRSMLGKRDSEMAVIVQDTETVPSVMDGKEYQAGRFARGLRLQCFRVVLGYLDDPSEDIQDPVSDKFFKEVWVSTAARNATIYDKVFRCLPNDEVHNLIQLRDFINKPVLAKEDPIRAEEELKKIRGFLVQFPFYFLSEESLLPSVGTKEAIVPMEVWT
- assay_notes: cellular phospholipase D1 activity inhibition – cell-based (AID 743388)
- recorded_conditions: Calu-1 cells, PMA-stimulated, PtdBuOH-d9 by mass spectrometry, 30 min; at 20 µM; stronger effect = higher value
Lab note: anything with inhibition at or over 5% counts as T; the rest go in F.

Here are 3 compounds together with their reported answers.
record_smiles | test_system | group
O=C(NCCN1CCC2(CC1)C(=O)NCN2Cc1cccnc1)c1ccc2ccccc2n1 | Phospholipase D1 (Homo sapiens) (UniProt Q13393) | T
O=C(NCCN1CCC2(CC1)C(=O)NCN2Cc1cccnc1)c1nc(-c2ccc(F)cc2)no1 | Phospholipase D1 (Homo sapiens) (UniProt Q13393) | T
O=C(NCCN1CCC2(CC1)C(=O)NCN2c1cncc(F)c1)c1cc2cc(F)ccc2[nH]1 | Phospholipase D1 (Homo sapiens) (UniProt Q13393) | T

Kindly determine if inhibition recorded for O=C(NCCN1CCC2(CC1)C(=O)NCN2c1cccnc1)c1ccc(Br)cc1 is above or exactly 5%.
F

Textbook exercise: given the entry O=C(NCCN1CCC2(CC1)C(=O)NCN2c1cncc(F)c1)c1ccc(F)cc1 , state whether its inhibition is greater than or equal to 5%.
T

API: above_or_equal(metric=inhibition, cutoff=5%) for item O=C(NCCN1CCC2(CC1)C(=O)NCN2Cc1cccnc1)c1cccc(C(F)(F)F)c1
F

# check: inhibition of O=C(NCCN1CCC2(CC1)C(=O)NCN2c1cncc(F)c1)c1ccc(F)c(F)c1 is greater than or equal to 5%
T

Does O=C(NCCN1CCC2(CC1)C(=O)NCN2Cc1cccnc1)c1ccc(Cl)cc1Cl have a reported inhibition of at least 5%?
F

Evaluate O=C(NCCN1CCC2(CC1)C(=O)NCN2C(=O)c1ccccc1)c1ccc2ccccc2c1 : inhibition at minimum 5%?
T

Exam item: decide whether the reported inhibition for O=C(NCCN1CCC2(CC1)C(=O)NCN2Cc1cccnc1)c1ccccc1F is at least 5%.
F

Decide: is the reported value of inhibition for O=C(NCCN1CCC2(CC1)C(=O)NCN2Cc1cccnc1)c1ccc(C(F)(F)F)cc1 equal to or greater than 5%?
F

API: above_or_equal(metric=inhibition, cutoff=5%) for item O=C(NCCN1CCC2(CC1)C(=O)NCN2Cc1cccnc1)c1sc2ncccc2c1-n1cccc1
T

* * *

- test_system: Phospholipase D1 (Homo sapiens) (UniProt Q13393)
- assay_notes: cellular phospholipase D1 activity inhibition – cell-based (AID 743388)
- recorded_conditions: Calu-1 cells, PMA-stimulated, PtdBuOH-d9 by mass spectrometry, 30 min; at 20 µM; stronger effect = higher value
value_type: inhibition (%)
Answer format: numeric, % implied, no suffix.

record_smiles | inhibition / %
O=C(NCCN1CCC2(CC1)C(=O)NCN2Cc1cccnc1)c1ccc2ccccc2c1Br | 10
O=C(NCCN1CCC2(CC1)C(=O)NCN2Cc1ccncc1)c1ccc2ccccc2c1 | 53
O=C(NCCN1CCC2(CC1)C(=O)NCN2CC1CC1)c1ccc2ccccc2c1 | 43
Cc1cc(C)c2cc(C(=O)NCCN3CCC4(CC3)C(=O)NCN4Cc3cccnc3)[nH]c2c1 | 13
O=C(NCCN1CCC2(CC1)C(=O)NCN2Cc1cccnc1)c1ccc(SC(F)(F)F)cc1 | 5
O=C(NCCN1CCC2(CC1)C(=O)NCN2Cc1ccccn1)c1ccc2ccccc2c1 | 88
O=C(NCCN1CCC2(CC1)C(=O)NCN2c1cccnc1)c1ccc2ccccc2c1 | 7
Cc1cc(N2CNC(=O)C23CCN(CCNC(=O)c2ccc4ccccc4c2)CC3)ccn1 | 7
O=C(NCCN1CCC2(CC1)C(=O)NCN2C(=O)C1CC1)c1ccc2ccccc2c1 | 83
O=C(NCCN1CCC2(CC1)C(=O)NCN2c1cncc(F)c1)c1ccc(Br)cc1 | 12

As a next step, examine the molecule that follows.
Find the measured inhibition: item O=C(NCCN1CCC2(CC1)C(=O)NCN2Cc1cccnc1)c1cccc(F)c1 , target or system Phospholipase D1 (Homo sapiens) (UniProt Q13393).
2

* * *

- test_system: Phospholipase D1 (Homo sapiens) (UniProt Q13393)
- assay_notes: cellular phospholipase D1 activity inhibition – cell-based (AID 743388); call rule not given here
- recorded_conditions: Calu-1 cells, PMA-stimulated, PtdBuOH-d9 by mass spectrometry, 30 min; at 20 µM
Bench note: report the call from active, inactive

record_smiles | group
O=C(NCCN1CCC2(CC1)C(=O)NCN2Cc1ccccc1)c1ccc2ccccc2c1 | active

--- query ---
// outcome(item) with item = O=C(NCCN1CCC2(CC1)C(=O)NCN2C(=O)C1CCC1)c1ccc2ccccc2c1
active

* * *

In this section, each of the compounds is paired with its reported inhibition.
- test_system: Phospholipase D1 (Homo sapiens)
- assay_notes: cellular phospholipase D1 activity inhibition – cell-based (AID 743388)
- recorded_conditions: Calu-1 cells, PMA-stimulated, PtdBuOH-d9 by mass spectrometry, 30 min; at 20 µM; stronger effect = higher value
Output spec: scalar in %, unitless text.

record_smiles | readout_units | inhibition
O=C(NCCN1CCC2(CC1)C(=O)NCN2c1ccc(C(F)(F)F)nc1)c1ccc2ccccc2c1 | % | 2
O=C(NCCN1CCC2(CC1)C(=O)NCN2Cc1cccnc1)c1cc2cccnc2[nH]1 | % | 16
COc1cc(C(=O)NCCN2CCC3(CC2)C(=O)NCN3Cc2cccnc2)cc(OC)c1OC | % | 0

Reported inhibition for O=C(NCCN1CCC2(CC1)C(=O)NCN2c1cccnc1)c1cc(F)c(F)c(F)c1 : what is it?
6

Entry under review: O=C(NCCN1CCC2(CC1)C(=O)NCN2Cc1cccnc1)c1ccc(F)cc1C(F)(F)F . Reported inhibition?
0

* * *

- test_system: Phospholipase D1 (Homo sapiens) (UniProt Q13393)
- assay_notes: cellular phospholipase D1 activity inhibition – cell-based (AID 743388)
- recorded_conditions: Calu-1 cells, PMA-stimulated, PtdBuOH-d9 by mass spectrometry, 30 min; at 20 µM
Active and inactive are the calls of the source. How the calls were made is not given here.
Return exactly one item of active, inactive

record_smiles | group
O=C(NCCN1CCC2(CC1)C(=O)NCN2Cc1cccnc1)c1c(Cl)cncc1Cl | inactive
O=C(NCCN1CCC2(CC1)C(=O)NCN2Cc1cccc(OC(F)(F)F)c1)c1ccc2ccccc2c1 | inactive
O=C(NCCN1CCC2(CC1)C(=O)NCN2Cc1cccnc1)c1cc(F)c(F)c(F)c1 | inactive
O=C(NCCN1CCC2(CC1)C(=O)NCN2c1cncc(F)c1)c1cc(F)c(F)c(F)c1 | inactive
O=C(NCCN1CCC2(CC1)C(=O)NCN2Cc1ccccc1Br)c1ccc2ccccc2c1 | active
O=C(NCCN1CCC2(CC1)C(=O)NCN2Cc1cccnc1)c1cc2ccccc2o1 | inactive

Called result for O=C(NCCN1CCC2(CC1)C(=O)NCN2Cc1cccnc1)c1ccc(F)c(F)c1
inactive

Would you mind telling me which call this test gave Cc1ccc(S(=O)(=O)NCCN2CCC3(CC2)C(=O)NCN3Cc2cccnc2)cc1 ?
inactive

Test call, this compound: O=C(NCCN1CCC2(CC1)C(=O)NCN2Cc1cccnc1)c1nccc2ccccc12
inactive

* * *

- test_system: Phospholipase D1 (Homo sapiens) (UniProt Q13393)
- assay_notes: cellular phospholipase D1 activity inhibition – cell-based (AID 743388)
- recorded_conditions: Calu-1 cells, PMA-stimulated, PtdBuOH-d9 by mass spectrometry, 30 min; at 20 µM
Calls of active or inactive are those of the source. How the calls were made is not given here.
Valid outcomes are listed here; reply with one: active, inactive

Answered examples (3):
record_smiles | group
Cn1cc(C(=O)NCCN2CCC3(CC2)C(=O)NCN3Cc2cccnc2)c2ccccc21 | inactive
O=C(NCCN1CCC2(CC1)C(=O)NCN2Cc1ccc(Cl)cc1)c1ccc2ccccc2c1 | active
COc1cccc(C(=O)N2CNC(=O)C23CCN(CCNC(=O)c2ccc4ccccc4c2)CC3)c1 | active

Tell me the recorded outcome of this test for O=C(NCCN1CCC2(CC1)C(=O)NCN2c1cccnc1)c1cc2cc(F)ccc2[nH]1 .
inactive

Dear all, I need the recorded test outcome for O=C(NCCN1CCC2(CC1)C(=O)NCN2Cc1cccnc1)c1ccc(F)cc1Cl , thank you.
inactive

State the result this test recorded for O=C(NCCN1CCC2(CC1)C(=O)NCN2C(=O)c1cccc(F)c1)c1ccc2ccccc2c1 .
active

GET /call?item= O=C(NCCN1CCC2(CC1)C(=O)NCN2c1cccnc1)c1ccc(F)cc1 returns the recorded outcome of this test.
inactive

Hi, sorry to bother you, what did the test record for O=C(NCCN1CCC2(CC1)C(=O)NCN2Cc1cccnc1)c1ccc(Cl)cc1F ?
inactive

* * *

// values below are reported inhibition
- test_system: Phospholipase D1 (Homo sapiens) (UniProt Q13393)
- assay_notes: cellular phospholipase D1 activity inhibition – cell-based (AID 743388)
- recorded_conditions: Calu-1 cells, PMA-stimulated, PtdBuOH-d9 by mass spectrometry, 30 min; at 20 µM; stronger effect = higher value
Express your answer in %, writing the number without its unit.

Query: inhibition; subject: O=C(NCCN1CCC2(CC1)C(=O)NCN2Cc1cccnc1)c1ccc(Cl)c(Cl)c1
13

Look up inhibition for this compound: O=C(NCCN1CCC2(CC1)C(=O)NCN2Cc1cccnc1)c1cc2ccccc2[nH]1
64

Suppose we examine the compound Cc1nc2sc(C(=O)NCCN3CCC4(CC3)C(=O)NCN4Cc3cccnc3)c(N)c2c(C)c1C ; what inhibition value has been reported?
9

What measured inhibition goes with O=C(NCCN1CCC2(CC1)C(=O)NCN2c1cncc(Br)c1)c1ccc2ccccc2c1 ?
9

I have this compound here, O=C(NCCN1CCC2(CC1)C(=O)NCN2Cc1cccnc1)c1ccc(F)cc1 , and I need its recorded inhibition.
3

Data request, read-out inhibition, for O=C(NCCN1CCC2(CC1)C(=O)NCN2Cc1cccnc1)c1ccc(Br)cc1
9

Would you mind telling me what inhibition value was observed for Cn1c(C(=O)NCCN2CCC3(CC2)C(=O)NCN3Cc2cccnc2)cc2ccccc21 ?
10
